B1: LINE1-full (parent)
chain: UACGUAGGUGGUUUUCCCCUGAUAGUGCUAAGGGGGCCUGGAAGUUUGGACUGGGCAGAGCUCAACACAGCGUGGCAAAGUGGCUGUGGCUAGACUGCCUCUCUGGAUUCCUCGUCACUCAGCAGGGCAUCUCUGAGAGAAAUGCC

variants of: B1; assay: self-cleavage, relative activity (ratio to wild type); higher = more cleavage; in vitro, sequencing; the parent is a self-cleaving ribozyme
Is self-cleavage at least 0.3? Then Fulfilled. If not, Not fulfilled.

Solved cases (5 shown):
{"Mutant id": "C37U G40A", "Assigned label": "Fulfilled"}
{"Mutant id": "G11U U20C", "Assigned label": "Fulfilled"}
{"Mutant id": "U5C G48A", "Assigned label": "Fulfilled"}
{"Mutant id": "U85A C98G", "Assigned label": "Not fulfilled"}
{"Mutant id": "A42C U134C", "Assigned label": "Fulfilled"}

Given the entry C38U G74A , answer whether its self-cleavage meets or surpasses 0.3. Fulfilled

Given the entry U13G C76U , answer whether its self-cleavage meets or surpasses 0.3. Fulfilled

Given the entry U5C C76U , answer whether its self-cleavage meets or surpasses 0.3. Fulfilled

Given the entry G53A A136G , answer whether its self-cleavage meets or surpasses 0.3. Fulfilled

Given the entry U46C A107U , answer whether its self-cleavage meets or surpasses 0.3. Fulfilled

Given the entry U14A U45A , answer whether its self-cleavage meets or surpasses 0.3. Not fulfilled
